Data credit: ChEMBL document CHEMBL4014307

Emax for assorted compounds
- Target: G-protein coupled receptor 84 (Homo sapiens)
- Sequence (Q9NQS5 whole entry): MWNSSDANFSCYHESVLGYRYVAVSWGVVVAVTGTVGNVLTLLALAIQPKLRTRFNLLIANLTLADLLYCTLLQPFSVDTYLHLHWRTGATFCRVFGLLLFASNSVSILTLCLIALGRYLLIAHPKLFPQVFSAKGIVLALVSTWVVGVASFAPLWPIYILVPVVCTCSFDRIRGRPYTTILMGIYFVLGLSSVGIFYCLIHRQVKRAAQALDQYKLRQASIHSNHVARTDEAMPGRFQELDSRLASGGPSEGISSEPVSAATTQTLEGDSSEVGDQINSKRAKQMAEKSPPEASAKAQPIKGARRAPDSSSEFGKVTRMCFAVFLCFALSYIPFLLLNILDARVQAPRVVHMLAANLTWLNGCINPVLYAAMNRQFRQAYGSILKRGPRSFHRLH
- Assay name: Agonist activity at Gi coupled human GPR84 expressed in CHO cells assessed as inhibition of forskolin-induced cAMP accumulation at 10 uM after 15 mins in presence of [3H]-cAMP by radiometric assay relative to decanoic acid
- Format: functional, cell-based
Property label: Emax (%)

>  <Compound>
COc1ccc2[nH]cc(CC3C(=O)Nc4ccccc43)c2c1 (stereo not drawn)

>  <Val>
-21

$$$$
>  <Compound>
CCC(c1c[nH]c2ccccc12)c1c[nH]c2ccccc12

>  <Val>
-24

$$$$
>  <Compound>
c1cc2c(c(C(c3c[nH]c4ccccc34)c3c[nH]c4ccccc34)c1)OCO2

>  <Val>
0

$$$$
>  <Compound>
Clc1ccc(C(c2c[nH]c3ccccc23)c2c[nH]c3ccccc23)cc1

>  <Val>
-4

$$$$
>  <Compound>
CC(c1c[nH]c2cccc(F)c12)c1c[nH]c2cccc(F)c12

>  <Val>
5

$$$$
>  <Compound>
O=C(O)c1ccc2[nH]cc(Cc3c[nH]c4ccccc34)c2c1

>  <Val>
5

$$$$
>  <Compound>
c1ccc2c(Cc3c[nH]c4ccccc34)c[nH]c2c1

>  <Val>
125

$$$$
>  <Compound>
O=C1Nc2ccc(F)cc2C1Cc1c[nH]c2ccc(F)cc12 (stereo not drawn)

>  <Val>
16

$$$$
>  <Compound>
Fc1ccc2[nH]cc(Cc3c[nH]c4ccc(F)cc34)c2c1

>  <Val>
117

$$$$
>  <Compound>
O=C1Nc2ccccc2/C1=C/c1c[nH]c2ccccc12

>  <Val>
-17

$$$$
>  <Compound>
Fc1ccc2[nH]cc(Cc3c[nH]c4ccc(F)c(F)c34)c2c1F

>  <Val>
123

$$$$
>  <Compound>
COc1cccc2c(Cc3c[nH]c4c(OC)cccc34)c[nH]c12

>  <Val>
18

$$$$
>  <Compound>
O=[N+]([O-])c1ccc(C(c2c[nH]c3ccccc23)c2c[nH]c3ccccc23)cc1

>  <Val>
6

$$$$
>  <Compound>
O=C1Nc2ccccc2C1=Cc1ccc2[nH]ccc2c1

>  <Val>
-16

$$$$
>  <Compound>
COc1ccc2[nH]cc(C=C3C(=O)Nc4ccc(F)cc43)c2c1

>  <Val>
7

$$$$
>  <Compound>
COc1ccc2[nH]cc(CC3C(=O)Nc4ccc(F)cc43)c2c1 (stereo not drawn)

>  <Val>
-10

$$$$
>  <Compound>
c1ccc2c(C(c3c[nH]c4ccccc34)c3c[nH]c4ccccc34)c[nH]c2c1

>  <Val>
-10

$$$$
>  <Compound>
COC(=O)c1ccc2[nH]cc(Cc3c[nH]c4ccc(C(=O)OC)cc34)c2c1

>  <Val>
11

$$$$
>  <Compound>
Clc1cc(Cl)c2c(Cc3c[nH]c4cc(Cl)cc(Cl)c34)c[nH]c2c1

>  <Val>
51

$$$$
>  <Compound>
CCCCC(c1c[nH]c2ccccc12)c1c[nH]c2ccccc12

>  <Val>
-4

$$$$
>  <Compound>
Cc1[nH]c2ccccc2c1Cc1c(C)[nH]c2ccccc12

>  <Val>
42

$$$$
>  <Compound>
Fc1cc2c(Cc3c[nH]c4cc(Cl)c(F)cc34)c[nH]c2cc1Cl

>  <Val>
83

$$$$
>  <Compound>
Fc1ccc2[nH]cc(Cc3c[nH]c4ccccc34)c2c1

>  <Val>
115

$$$$
